- system.name: human recombinant sGC enzyme (Homo sapiens (Human), UniProt Q02108+Q02153)
- assay.text: Size Exclusion Chromatography (SEC) competition binding assay using [3H] Ex-77B as the radioligand
- test.context: [3H] Ex-77B radioligand, 24 hours at 37° C.
- Method: Binding Assay: The binding potencies of sGC compounds to the human recombinant sGC enzyme were determined in a Size Exclusion Chromatography (SEC) competition binding assay using [^3H] Ex-77B as the radioligand. [^3H] […] The sealed plates were shaken vigorously and span, and counted after 6 hours with a Wallac Microbeta TriLux 1450 LSC & Luminescence Counter (Perkin Elmer). Data from competition experiments were analyzed to determine Ki values using one site fit Ki equation.
measurement.type: Ki (nM)

[[record]]
compound = "CC(C)(Cn1cc(C2(C)C(=O)Nc3nc(-c4nn(Cc5ccccc5F)c5cc(Cl)ccc45)nc(N)c32)nn1)C(=O)O (single isomer, unassigned) [Example 140A]"
system_name = "human recombinant sGC enzyme (Homo sapiens (Human), UniProt Q02108+Q02153)"
numeric_result = 0.227


1: CC(C)(Cc1coc(C2(C)C(=O)Nc3nc(-c4nn(Cc5cccc(F)c5)c5ncccc45)nc(N)c32)n1)C(=O)O (stereo not drawn) [Example 150A]
2: CC(C)(NC(=O)CCc1ccc([C@]2(C)C(=O)Nc3nc(-c4nn(Cc5ccccc5F)c5ncccc45)nc(N)c32)cc1)C(=O)O [Example 101B]
QUERY: Ki comparison. Which is larger, 1 or 2 ? In your reply, give the label of the chosen option.
RESULT: 1
